target: IDO1 (Homo sapiens); construct: HeLa cells were treated with a test compound in the presence of IFNγ, which induces IDO1 expression; host or cells: H1-HeLa cells, IDO1 induced with IFNγ; assay: Cell-based (HeLa) assay for measurement of IDO1 inhibition (kynurenine levels in supernatant after IFNγ induction); conditions: HeLa cells, IFNγ-induced IDO1, kynurenine in supernatant, 48 hour incubation; geometric mean of a minimum of four determinations
pEC50: −log10 of the molar value.
Label true when pEC50 >= 6; otherwise false.

COMPOUND | CLASS NAME
O/N=C(\Nc1ccc(F)c(Cl)c1)c1cc(F)c(F)c2nc(NCc3cccnc3)[nH]c12 [Example 343] | false
O/N=C(\Nc1ccc(F)c(Cl)c1)c1cc(F)c(F)c2nc(NCCN3CC[C@H](O)C3)[nH]c12 [Example 452] | true
CN(C)CCNc1nc2c(F)c(F)cc(/C(=N/O)Nc3cccc(Br)c3)c2[nH]1 [Example 430] | true
O/N=C(\Nc1ccc(F)c(Cl)c1)c1cc(F)c(F)c2nc(NCCN3CCC[C@H]3C(F)(F)F)[nH]c12 [Example 470] | false

Could you now consider this next compound?
Record CN1Cc2ccccc2C(Nc2nc3c(F)c(F)cc(/C(=N/O)Nc4ccc(F)c(Cl)c4)c3[nH]2)C1 (stereo not shown) [Example 475] ; criterion: pEC50 no lower than 6. Met? false

====

target: IDO1 (Homo sapiens, UniProt P14902); construct: HeLa cells were treated with a test compound in the presence of IFNγ, which induces IDO1 expression; host or cells: H1-HeLa cells, IDO1 induced with IFNγ; assay: Cell-based (HeLa) assay for measurement of IDO1 inhibition (kynurenine levels in supernatant after IFNγ induction); conditions: HeLa cells, IFNγ-induced IDO1, kynurenine in supernatant, 48 hour incubation; geometric mean of a minimum of four determinations
Sequence (P14902 whole entry): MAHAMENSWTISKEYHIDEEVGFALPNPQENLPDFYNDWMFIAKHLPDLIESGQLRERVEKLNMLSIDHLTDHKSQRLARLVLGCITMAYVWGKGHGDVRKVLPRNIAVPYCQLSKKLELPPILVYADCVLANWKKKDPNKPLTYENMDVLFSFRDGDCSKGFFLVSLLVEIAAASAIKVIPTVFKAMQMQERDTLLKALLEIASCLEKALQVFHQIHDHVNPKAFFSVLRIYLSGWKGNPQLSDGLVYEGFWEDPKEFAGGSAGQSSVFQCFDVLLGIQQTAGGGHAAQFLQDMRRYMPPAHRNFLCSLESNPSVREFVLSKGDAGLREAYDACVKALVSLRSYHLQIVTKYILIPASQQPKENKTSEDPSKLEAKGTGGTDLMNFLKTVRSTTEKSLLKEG
pEC50: −log10 of the molar value.
# cutoff 6 applies to pEC50; >= gives label 1, < gives label 0

See these solved cases before continuing.
COMPOUND | CLASS NAME
CN(C(=NO)c1ccnc2nc[nH]c12)c1ccc(F)c(Cl)c1 | label 0
Cn1ccnc1CCNc1nc2c(F)c(F)cc(/C(=N/O)Nc3ccc(F)c(Cl)c3)c2[nH]1 | label 0
O/N=C(\Nc1cccc(Cl)c1)c1cc(F)c(F)c2nc(NCCN3CCCC3)[nH]c12 | label 1
CN1CCCC(Nc2nc3c(F)c(F)cc(/C(=N/O)Nc4ccc(F)c(Cl)c4)c3[nH]2)C1 (stereo not shown) | label 1
CS(=O)(=O)CCNc1nc2nccc(/C(=N/O)Nc3ccc(F)c(Cl)c3)c2[nH]1 | label 0
Nc1ccccc1CNc1nc2c(F)c(F)cc(/C(=N/O)Nc3ccc(F)c(Cl)c3)c2[nH]1 | label 0
OCC1CCCCN1CCNc1nc2c(F)c(F)cc(/C(=N/O)Nc3ccc(F)c(Cl)c3)c2[nH]1 (stereo not shown) | label 1
CN1CCCCC(Nc2nc3c(F)c(F)cc(/C(=N/O)Nc4ccc(F)c(Cl)c4)c3[nH]2)C1 (stereo not shown) | label 1
CN(CCNc1nc2c(F)c(F)cc(/C(=N/O)Nc3ccc(F)c(Cl)c3)c2[nH]1)CC1CC1 | label 1
CCN(CCNc1nc2nccc(/C(=N/O)Nc3ccc(F)c(Cl)c3)c2[nH]1)C1CC1 | label 1

Decide: is the reported value of pEC50 for COCCN1CCC(Nc2nc3c(F)c(F)cc(/C(=N/O)Nc4ccc(F)c(Cl)c4)c3[nH]2)C1 (stereo not shown) equal to or greater than 6? label 1

Now consider CN(C)CC(C)(C)CNc1nc2c(F)ccc(/C(=N/O)Nc3ccc(F)c(Cl)c3)c2[nH]1 and answer again. label 0

Now this one: O/N=C(\Nc1ccc(F)c(Cl)c1)c1ccnc2nc(CC3CCCN3)[nH]c12 (stereo not shown) label 0

====

Molecular target: IDO1 (Homo sapiens, UniProt P14902)
Construct: HeLa cells were treated with a test compound in the presence of IFNγ, which induces IDO1 expression; host or cells: H1-HeLa cells, IDO1 induced with IFNγ
Test: Cell-based (HeLa) assay for measurement of IDO1 inhibition (kynurenine levels in supernatant after IFNγ induction)
Settings: HeLa cells, IFNγ-induced IDO1, kynurenine in supernatant after 48 hour incubation; geometric mean of a minimum of four determinations
Method: Example 509. Cell-Based (HeLa) Assay for Measurement of IDOL Inhibition To measure IDO1 inhibition in tissue culture, HeLa cells were treated with a test compound in the presence of IFNγ, which induces IDO1 expression. […] Data in Table 1 were normalized based on positive (−IFNγ) and negative (+IFNγ) controls and EC50 values were calculated from the fit of the dose response curves to a four-parameter equation. […]
This section presents molecules with their documented EC50 values.
The reply should be a number in nM, with the unit left off.

Some entries whose results are on file:
SMILES STRUCTURE | EC50 [nM]
O/N=C(\Nc1ccc(F)c(Cl)c1)c1cc(F)c(F)c2nc(NCCN3CCC(F)(F)CC3)[nH]c12 | 712
COc1ccc(CNCCc2nc3nccc(/C(=N/O)Nc4ccc(F)c(Cl)c4)c3[nH]2)c(OC)c1 | 1970

// below: EC50 requested for another molecule
Dear colleague, I am looking for the recorded EC50 of the following molecule: CN(C)CCc1nc2nccc(/C(=N/O)Nc3ccc(F)c(Cl)c3)c2[nH]1 593

====

molecular target: IDO1 (Homo sapiens, UniProt P14902); construct: HeLa cells were treated with a test compound in the presence of IFNγ, which induces IDO1 expression; host or cells: H1-HeLa cells, IDO1 induced with IFNγ; test: Cell-based (HeLa) assay for measurement of IDO1 inhibition (kynurenine levels in supernatant after IFNγ induction); conditions: HeLa cells, IFNγ-induced IDO1, kynurenine in supernatant after 48 hour incubation; geometric mean of a minimum of four determinations
Reported values of EC50 for individual entries
Report the figure in nM without appending any unit label.

Sample records with EC50:
COMPOUND | TARGET SYSTEM | MEASURED PARAMETER | RECORDED RESULT
NCc1nc2c(F)c(F)cc(/C(=N/O)Nc3cccc(Cl)c3)c2[nH]1 [Example 31] | IDO1 (Homo sapiens, UniProt P14902) | EC50 | 1680
O/N=C(\Nc1ccc(F)c(Cl)c1)c1ccc(F)c2nc(NCCCN3CCOCC3)[nH]c12 [Example 200] | IDO1 (Homo sapiens, UniProt P14902) | EC50 | 564
O/N=C(\Nc1ccc(F)c(Cl)c1)c1ccnc2nc(CCN3CCCC3)[nH]c12 [Example 193] | IDO1 (Homo sapiens, UniProt P14902) | EC50 | 358
O/N=C(\Nc1ccc(F)c(Cl)c1)c1ccnc2nc(NCCNCC(F)F)[nH]c12 [Example 230] | IDO1 (Homo sapiens, UniProt P14902) | EC50 | 3840
O/N=C(\Nc1ccc(F)c(Cl)c1)c1ccnc2nc(C3CC3)[nH]c12 [Example 109] | IDO1 (Homo sapiens, UniProt P14902) | EC50 | 1390
O/N=C(\Nc1ccc(F)c(Cl)c1)c1ccnc2nc(CCN3CCC(O)CC3)[nH]c12 [Example 262] | IDO1 (Homo sapiens, UniProt P14902) | EC50 | 3240

Now take the following compound into account.
Query (compound): CN1CCC(Nc2nc3nccc(/C(=N/O)Nc4ccc(F)c(Cl)c4)c3[nH]2)C1 (centres unmarked) [Example 203] ; field requested: EC50 1340

====

Quick list: pEC50 per entry.
molecular target: IDO1 (Homo sapiens); construct: HeLa cells were treated with a test compound in the presence of IFNγ, which induces IDO1 expression; host or cells: H1-HeLa cells, IDO1 induced with IFNγ; assay: Cell-based (HeLa) assay for measurement of IDO1 inhibition (kynurenine levels in supernatant after IFNγ induction); conditions: HeLa cells, IFNγ-induced IDO1, kynurenine in supernatant after 48 hour incubation; geometric mean of a minimum of four determinations
// pEC50 is dimensionless: -log10 of concentration (M)

Example compounds with recorded pEC50:
COMPOUND | pEC50
O/N=C(\Nc1ccc(F)c(Cl)c1)c1cc(F)c(F)c2nc(NCCN3CCCC3)[nH]c12 | 6.62
O/N=C(\Nc1ccc(F)c(Cl)c1)c1ccnc2nc(CCN3CC[C@H](O)C3)[nH]c12 | 5.46
Cc1c(F)cc(/C(=N/O)Nc2ccc(F)c(Cl)c2)c2[nH]cnc12 | 6.20
O/N=C(\Nc1ccc(F)c(Cl)c1)c1ccnc2nc(CNCCc3ncccn3)[nH]c12 | 5.13
O/N=C(\Nc1ccc(F)c(Cl)c1)c1ccnc2nc(C(O)C3CC3)[nH]c12 (centres unmarked) | 5.15

With those in mind, consider the next compound.
Requested field: pEC50. Item: CN1CCCCC(Nc2nc3nccc(/C(=N/O)Nc4ccc(F)c(Cl)c4)c3[nH]2)C1 (centres unmarked) 5.54

====

target: IDO1 (Homo sapiens); construct: HeLa cells were treated with a test compound in the presence of IFNγ, which induces IDO1 expression; host or cells: H1-HeLa cells, IDO1 induced with IFNγ; assay: Cell-based (HeLa) assay for measurement of IDO1 inhibition (kynurenine levels in supernatant after IFNγ induction); details: HeLa cells, IFNγ-induced IDO1, kynurenine in supernatant, 48 hour incubation; geometric mean of a minimum of four determinations
MEASURED PARAMETER: EC50
In your response, put the unit directly after the numeric value.

A selection of reference data follows.
MOLECULE | EC50
CN(C)CCCNc1nc2c(F)ccc(/C(=N/O)Nc3ccc(F)c(Cl)c3)c2[nH]1 | 939 nM
O/N=C(\Nc1ccc(F)c(Cl)c1)c1cc(F)c(F)c2nc(N[C@@H]3CCCN(C4COC4)C3)[nH]c12 | 957 nM
CN(C)CCCNc1nc2cc(F)cc(/C(=N/O)Nc3ccc(F)c(Cl)c3)c2[nH]1 | 1160 nM

Fill blank: measured EC50 of the molecule CS(=O)(=O)NCCNc1nc2nccc(/C(=N/O)Nc3ccc(F)c(Cl)c3)c2[nH]1 is ____. 7110 nM

Now this one: CN1CC[C@H](Nc2nc3c(F)c(F)cc(/C(=N/O)Nc4ccc(F)c(Cl)c4)c3[nH]2)C1 325 nM

Hey, just so you know, these numbers are from patent US9951065B2.
